Collected cytotoxicity at 10 µM values appear next to each entry.
# assay_protocol: Toxicity liver stage against HepG2, at 10uM
# Type: cell-based
# Set-up: test concentration 10 uM, cell line HepG2-A16-CD81EGFP
# conditions: human, HepG2-A16-CD81EGFP cells; read-out: INHIBITION
// return numeric value only (unit: %, not printed)

For `COc1ccc(Cl)cc1S(=O)(=O)N(C)CC(=O)Nc1cccnc1` , what is its reported cytotoxicity at 10 µM? 0.192

Now consider COc1ccccc1N1CCC(N2CCOCC(CO)C2)CC1 (stereo not drawn) and answer again. -6.85

Please answer likewise for CNc1cncc(C2CCCN2C(=O)CCn2ccnc2C(C)C)n1 (stereo not drawn) 3.36

Please give the result for `O=C(CCN1CCCCO1)N1CC[C@H](O)[C@@H](O)C1` too. -1.77

Repeat for the following compound: `N#Cc1cn(C2CC2)c(=O)n(Cc2ncc(-c3cccs3)o2)c1=O` 14.8

Moving on to CCC(CO)N(Cc1cccnc1)Cc1ccc(-c2ccn[nH]2)s1 (stereo not drawn) -1.55

Continuing:
What value of cytotoxicity at 10 µM has been recorded for this entry: `COc1ccc(CN2C[C@@H](CN(C)C)[C@@H](CO)C2)cc1CN1CCCC1` 4.59

Please do the same for `Cn1c(CN2CCOC[C@H]2c2nc(C(C)(C)C)co2)nc2ccccc21` as well. 4.78

Try this compound too: `Cc1ccoc1C(=O)NC1CCN(Cc2cccc3c2OCCO3)CC1` 1.18
